# Substrate: NC(=O)C1=CN([C@@H]2O[C@H](COP(=O)(O)OP(=O)(O)OC[C@H]3O[C@@H](n4cnc5c(N)ncnc54)[C@H](OP(=O)(O)O)[C@@H]3O)[C@@H](O)[C@H]2O)C=CC1
# MEASUREMENT_NOTES: purified protein
# Assay type: biochemical, Bacillus subtilis
# ASSAY_SETUP: 1 mM L-P5C, 20 mM Tris-HCl pH 7.0, 30°C, kcat per monomer
METRIC_NAME: Km (µM)
Only the number, expressed in µM, is required.

ComER (Bacillus subtilis subsp. subtilis str. 168) (protein, full-length; pMCSG68, N-terminal His6-TEV tag removed; E. coli BL21 Gold; monomer by SAXS) MKIGFIGTGNMGTILIESFIESKAADPSNMTITNRTIEKALHIKNRYNSINVTESLEKLVSENEMIFICVKPLDIYPLLARALPYLRKDHILISITSPVQTEQLEQYVPCQVARVIPSITNRALAGVSLVTFGTSCGESAKAKINELMQHISHPLQIESDITRVASDIVSCGPAFMSYLIQRFIDAAVSETSVSKQDAILMCKEMLVGMGKLLETELYTLPALQEKVCVKGGVTGEGIKALESGVQDMFHRVFQNTHMKYEEDISAVKKQFHV: 1.2
ProH (Bacillus subtilis subsp. subtilis str. 168) (protein, full-length; pMCSG68, N-terminal His6-TEV tag removed; E. coli BL21 Gold; homodimer by SAXS) MRTKKRTKEMLPIFDQKKVAFIGAGSMAEGMISGIVRANKIPKQNICVTNRSNTERLTELELQYGIKGALPNQLCIEDMDVLILAMKPKDAENALSSLKSRIQPHQLILSVLAGITTSFIEQSLLNEQPVVRVMPNTSSMIGASATAIALGKYVSEDLKKLAEALLGCMGEVYTIQENQMDIFTGIAGSGPAYFYYLMEFIEKTGEEAGLDKQLSRSIGAQTLLGAAKMLMETGEHPEILRDNITSPNGTTAAGLQA: 13.6
ProG, putative δ1-pyrroline-5-carboxylate (P5C) reductase from Bacillus subtilis (enzyme, Bacillus subtilis strain 168, UniProt Q00777 1-272, looked up, ProG, putative P5C reductase, Bacillus subtilis strain 168; calculated mass 30.20 kDa; Cloned in pMCSG68 (His6 tag and TEV site at the N-terminus); also called P5C reductase ProG; source: E. coli BL21 Gold, purified (Ni-NTA, TEV cleavage, second Ni-NTA, SEC on Superdex 200); not shown: His6, N-terminal, cleaved) MEQIGLIGYGSMADMIARQLLKHEQIKENELFIETRTKGERLRALMSDYPNVSADPLENWANTCQLILICVPPLHVIETMRRLYPYVNRNTHIVSIAAGVPLRLLEAETEAGISRVIPAITSEAEAGISLVVHSEALAAEKKERLNELLSVFSRVREIKESNLDVASNLTSSAPGFIAAIFEELALSAVRNSSLSKEEAFDFLIHSLYGTGKMLIEKNMSFEETLERVATKGGITGEGAEVIHASVPDVFDEVFERTLRKYELLTEQVGKQT: 232

Lab note: next protein to report on.
# input Query (protein): ProI, putative δ1-pyrroline-5-carboxylate (P5C) reductase from Bacillus subtilis (enzyme, Bacillus subtilis strain 168, UniProt P54552 1-278, looked up, ProI, putative P5C reductase, Bacillus subtilis strain 168; calculated mass 30.90 kDa; Cloned in pMCSG68 (His6 tag and TEV site at the N-terminus); also called P5C reductase ProI; source: E. coli BL21 Gold, purified (Ni-NTA, TEV cleavage, second Ni-NTA, SEC on Superdex 200); not shown: His6, N-terminal, cleaved) MKKIGFVGAGSMAEAMINGILQSGITKPEHIYITNRSNDERLIELKETYSVRPCRDKNEFFTHTDIIILAFKPKDAAESIDSIRPYIKDQLVISVLAGLTIETIQHYFGRKLAVIRVMPNTSAAIRKSATGFSVSTEASKNDIIAAKALLETIGDATLVEERHLDAVTAIAGSGPAYVYRYIEAMEKAAQKVGLDKETAKALILQTMAGATDMLLQSGKQPEKLRKEITSPGGTTEAGLRALQDSRFEEAIIHCIEETAKRSAEIKEQFAGAALERHS ; field requested: Km
# output 51.8
